assay: In vitro inhibition of Hematopoietic protein-tyrosine phosphatase using p-nitrophenyl phosphate as substrate.
pIC50: −log10 of the molar value.
This listing pairs compounds with measured pIC50.
PROPERTY_LABEL: pIC50

>>> readout_value("CCC(NC(=O)c1ccc(/C=C/C(=O)O)cc1)C(=O)NCc1ccccc1 (stereo not drawn)")
4.82
>>> readout_value("CC(C)(C)NC(=O)C(NC(=O)c1ccc(/C=C/C(=O)O)cc1)c1ccccc1 (stereo not drawn)")
5.40
>>> readout_value("CCCCNC(=O)C(NC(=O)c1ccc(/C=C/C(=O)O)cc1)c1ccccc1 (stereo not drawn)")
5.17
>>> readout_value("CCCC(NC(=O)c1ccc(/C=C/C(=O)O)cc1)C(=O)NCc1ccccc1 (stereo not drawn)")
5.21
>>> readout_value("O=C(O)/C=C/c1ccc(C(=O)NC(C(=O)NCC(=O)O)c2ccccc2)cc1 (stereo not drawn)")
4.98
>>> readout_value("O=C(O)/C=C/c1ccc(C(=O)NC(C(=O)NC2CCCCC2)c2ccccc2)cc1 (stereo not drawn)")
5.21
>>> readout_value("CCCCCCC(NC(=O)c1ccc(/C=C/C(=O)O)cc1)C(=O)NCC(=O)OC (stereo not drawn)")
5.14
>>> readout_value("CCCCC(NC(=O)c1ccc(/C=C/C(=O)O)cc1)C(=O)NCc1ccccc1 (stereo not drawn)")
5.20
>>> readout_value("CCCCCCC(NC(=O)c1ccc(/C=C/C(=O)O)cc1)C(=O)NCC(=O)OCC (stereo not drawn)")
5.00
>>> readout_value("COC(=O)CNC(=O)C(NC(=O)c1ccc(/C=C/C(=O)O)cc1)c1ccccc1 (stereo not drawn)")
4.69
>>> readout_value("CCCCCCC(NC(=O)c1ccc(/C=C/C(=O)O)cc1)C(=O)NCC(=O)O (stereo not drawn)")
5.12
>>> readout_value("CCOC(=O)CNC(=O)C(NC(=O)c1ccc(/C=C/C(=O)O)cc1)c1ccccc1 (stereo not drawn)")
5.02
>>> readout_value("CCCCCCC(NC(=O)c1ccc(/C=C/C(=O)O)cc1)C(=O)NCCCC (stereo not drawn)")
5.05
>>> readout_value("CC(NC(=O)c1ccc(/C=C/C(=O)O)cc1)C(=O)NCc1ccccc1 (stereo not drawn)")
5.14
>>> readout_value("CCCCCCC(NC(=O)c1ccc(/C=C/C(=O)O)cc1)C(=O)NC(C)(C)C (stereo not drawn)")
5.12
>>> readout_value("CCCCCCC(NC(=O)c1ccc(/C=C/C(=O)O)cc1)C(=O)NCc1ccccc1 (stereo not drawn)")
5.22
>>> readout_value("O=C(O)/C=C/c1ccc(C(=O)NC(C(=O)NCc2ccccc2)c2ccccc2)cc1 (stereo not drawn)")
5.41
>>> readout_value("CCCCCCC(NC(=O)c1ccc(/C=C/C(=O)O)cc1)C(=O)NC1CCCCC1 (stereo not drawn)")
5.05
